# Lookup of reported CC50 keyed by entry
Test: The compound was tested for cytotoxicity against NSO murine cell line.
Format: cell-based
Details: mouse, NSO cells; read-out: TC50 (the source's name)
Express your answer in µM, writing the number without its unit.

Would you please look over these solved cases?
Molecule: CCC1(c2ccccc2)Oc2cccnc2-n2cccc2C1=O (stereo unspecified)
CC50 (µM): 14
--
Molecule: CCC1(c2cccc(OC)c2)Oc2ccccc2-n2cccc2C1=O (stereo unspecified)
CC50 (µM): 230

Notebook: CCC1(c2cccc(F)c2)Oc2ccccc2-n2cccc2C1=O (stereo unspecified) , CC50 read as 720

Notebook: CCC1(c2cccc(C)c2)Oc2cccnc2-n2cccc2C1=O (stereo unspecified) , CC50 read as 410

Notebook: CCC1(c2cccs2)Oc2cccnc2-n2cccc2C1=O (stereo unspecified) , CC50 read as 26
